Data origin, for the record: the RNAGym collection of RNA variant scans (doi:10.7554/elife.90254)

B1: LINE1-full (parent)
chain: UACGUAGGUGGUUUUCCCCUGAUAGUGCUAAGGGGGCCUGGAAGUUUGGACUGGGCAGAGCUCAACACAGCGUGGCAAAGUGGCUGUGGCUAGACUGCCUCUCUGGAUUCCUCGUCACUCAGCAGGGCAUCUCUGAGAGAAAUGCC

- Variants of: B1
- Experiment notes: self-cleavage, relative activity (ratio to wild type); higher = more cleavage; in vitro, sequencing; the parent is a self-cleaving ribozyme
Assay metric: self-cleavage
Lab note: record the figure alone, no unit after it.

Need self-cleavage, item C61U U108C
0.01

So what's the measured self-cleavage for this one? U102A A107G
1.06

Tell me the measured self-cleavage of A43G A124C , please.
1.96

What value of measured self-cleavage is listed for G44C U91C ?
0.14

What does the record list as self-cleavage for U45C U73A ?
1.68

Returns the measured self-cleavage for the input variant. Input: A69U U115C
0.07

// lookup self-cleavage for A59G C76U
0.12

What does the data say about its self-cleavage? Entry: U9C C61U
0.08

Return reported self-cleavage; argument: A67G A121U
0.51

Fill in: self-cleavage of U104C A129C is ___
2.1

Requested field: self-cleavage. Item: C63A A117G
0.08

I would be grateful if you could share the reported self-cleavage for G11A U12G .
0.47

Quick one: self-cleavage for G11A U119A ?
0.93

Which self-cleavage reading was recorded for the variant A22U A59G ?
0.07

Find the recorded self-cleavage belonging to U15G A129G and report it.
0.61

self-cleavage for U100A U104C ?
1.68

So what's the measured self-cleavage for this one? G53U U119A
1.33

Any idea what self-cleavage was measured for U39G U81A ?
1.62

Name the recorded self-cleavage for U14C G48A .
1.12

Can you look up the measured self-cleavage of U100C G139U for me?
2.03

Which self-cleavage is reported for this variant? U52C
1.24

Please report the recorded self-cleavage for C3A A129G .
0.88

If you can, please state the reported self-cleavage value of G58U U81C .
0.05

// returns reported self-cleavage for input U108G U112C
2.58

Given the variant A69G A79C , what is its reported self-cleavage?
0.17

What does the data say about its self-cleavage? Entry: A42U A79G
1.16

Field request: self-cleavage | item: G80U U102A
1.34

Requested read-out: self-cleavage. Entry: U87A G106C
0.08

Form field: reported self-cleavage of A31U U104A
1.15

Field request: self-cleavage | item: G7A C111U
0.35

Give its self-cleavage value. Item: G7A C71A
0.29

Record request: self-cleavage value, item A94U A141U
0.42

I am curious: what self-cleavage value has been reported for G25A U87C ?
0.22

Given the entry U102A C146U , report its measured self-cleavage.
0.99

Look up self-cleavage for this variant: U39C A117C
1.84

Please report the recorded self-cleavage for U45C U132C .
1.51

Looking for the measured self-cleavage of C56U U85A , can you help?
0.04

Fill in: self-cleavage of C116G U134C is ___
0.99

# get_value(readout='self-cleavage', item= A6G G7A )
0.43

Returns the measured self-cleavage for the input variant. Input: A57U A141G
0.11

Given the entry G114A U132A , report its measured self-cleavage.
1.64

Would you kindly share the measured self-cleavage for G74A G144A ?
1.09

Which self-cleavage is reported for this variant? G74A U109C
0.7

Data request, read-out self-cleavage, for A107C U119C
2.19

Item G25A U81C has what recorded self-cleavage?
1.91

Name the reported self-cleavage value associated with the variant A24G U108C
1.68
